Hello, the source for this data is paper PMC3753203, in case you need it.

Tested on: NO signaling
Test: NO signaling activation
Type: cell-based
Details: read-out: EC50 NO, Table I
Quantity Name: EC50 (µM)
Numeric only. Scale: µM

Asked: // lookup EC50 for 65-KDLLEQKRAAVDTYC-79 [65-79*0401]
Given back: 60
